- Assay remarks: Oral bioavailability in human
- Assay type: ADME, organism-based
- Cond: in silico prediction
Label rule, in plain words: bioavailability of 90% and up is label 1, under 90% is label 0.

>>> classification("CC(=O)NS(=O)(=O)c1ccc2nc(-c3ccccc3)c(-c3ccccc3)nc2c1")
"label 1"
>>> classification("O=C(O)c1ccccc1NS(=O)(=O)c1ccc2nc(-c3ccccc3)c(-c3ccccc3)nc2c1")
"label 0"
>>> classification("NC(=S)NNS(=O)(=O)c1ccc2nc(-c3ccccc3)c(-c3ccccc3)nc2c1")
"label 0"
>>> classification("COc1ccccc1NS(=O)(=O)c1ccc2nc(-c3ccccc3)c(-c3ccccc3)nc2c1")
"label 1"
>>> classification("O=S(=O)(Nc1ccccn1)c1ccc2nc(-c3ccccc3)c(-c3ccccc3)nc2c1")
"label 1"
>>> classification("CC(=O)c1cccc(NS(=O)(=O)c2ccc3nc(-c4ccccc4)c(-c4ccccc4)nc3c2)c1")
"label 1"
>>> classification("Cc1ccnc(NS(=O)(=O)c2ccc3nc(-c4ccccc4)c(-c4ccccc4)nc3c2)c1")
"label 1"
>>> classification("O=C(NS(=O)(=O)c1ccc2nc(-c3ccccc3)c(-c3ccccc3)nc2c1)c1ccccc1")
"label 1"
>>> classification("O=S(=O)(Nc1ccc2ccccc2c1)c1ccc2nc(-c3ccccc3)c(-c3ccccc3)nc2c1")
"label 1"
>>> classification("O=[N+]([O-])c1cccc(NS(=O)(=O)c2ccc3nc(-c4ccccc4)c(-c4ccccc4)nc3c2)c1")
"label 0"
>>> classification("O=S(=O)(Nc1ccc(Cl)cc1)c1ccc2nc(-c3ccccc3)c(-c3ccccc3)nc2c1")
"label 1"
>>> classification("O=S(=O)(Nc1cccc2ccccc12)c1ccc2nc(-c3ccccc3)c(-c3ccccc3)nc2c1")
"label 1"
>>> classification("CC(=S)NS(=O)(=O)c1ccc2nc(-c3ccccc3)c(-c3ccccc3)nc2c1")
"label 1"
>>> classification("O=S(=O)(Nc1ccc(O)cc1)c1ccc2nc(-c3ccccc3)c(-c3ccccc3)nc2c1")
"label 1"

Data credit: ChEMBL document CHEMBL2407075
